These data points were gathered from the supplement of paper PMC4466140.

# tgt: CaFus1
# experiment notes: SPOT peptide array binding signal intensity (averaged, normalized) (arbitrary units (background-subtracted, floor 0; scale differs between SH3 domains)); higher = stronger binding of the SH3 domain to the peptide
recorded metric: SPOT peptide array binding signal intensity
Give only the figure.

Solved cases below.
{"binder": "ALRRRLPVTRSKINW", "reading": 1200}
{"binder": "GDHPKGPPPPPPPPD", "reading": 19}
{"binder": "SSTPTTPERPKRKSG", "reading": 48.5}

Next binder, SPOT peptide array binding signal intensity to be filled in.
Exercise: Give the reported SPOT peptide array binding signal intensity for this binder. "RMVRRRPLRVQFSAR"
Key: 3490
